Can you tell me IC50 for the items I'm about to list?
study-target: TDO2 in A172 cancer cells (Homo sapiens)
Construct: endogenous in cells
test: TDO2 Cellular Assay (kynurenine production in A172 cancer cells)
condition-summary: L-Trp 1 mM, 24 hours incubation, kynurenine at 490 nm

What is its IC50 for TDO2 in A172 cancer cells (Homo sapiens)? Entry: O=C(c1ccncc1)N1C[C@@H]2C[C@@](O)(c3cc(Cl)cc4[nH]ncc34)C[C@@H]2C1
≤ 500 nM

What is its IC50 for TDO2 in A172 cancer cells (Homo sapiens)? Entry: CCS(=O)(=O)N[C@H]1[C@@H]2C[C@@](O)(c3cc(Cl)cc4[nH]ncc34)C[C@@H]21
≤ 500 nM

What is its IC50 for TDO2 in A172 cancer cells (Homo sapiens)? Entry: CC(=O)N[C@H]1C[C@@H]2C[C@@](O)(c3cc(Cl)cc4[nH]ncc34)C[C@@H]2C1
≤ 500 nM

What is its IC50 for TDO2 in A172 cancer cells (Homo sapiens)? Entry: CS(=O)(=O)NC1[C@H]2CN(c3cc(Cl)cc4[nH]ncc34)C[C@@H]12 (stereo partly shown)
1000 to 5000 nM

What is its IC50 for TDO2 in A172 cancer cells (Homo sapiens)? Entry: O[C@@H]1C[C@@H]2C[C@@](O)(c3cc(Cl)cc4[nH]ncc34)C[C@@H]2C1
≤ 500 nM

What is its IC50 for TDO2 in A172 cancer cells (Homo sapiens)? Entry: CC1(C)[C@H]2CN(c3cc(C(F)(F)F)cc4cncn34)C[C@H]2CN1S(C)(=O)=O (racemic)
> 5000 nM

What is its IC50 for TDO2 in A172 cancer cells (Homo sapiens)? Entry: Cn1ncc2c(N3CC4CCN(S(C)(=O)=O)C4C3)cc(Cl)cc21 (stereo not shown)
> 5000 nM

What is its IC50 for TDO2 in A172 cancer cells (Homo sapiens)? Entry: O=S(=O)(N[C@H]1[C@@H]2C[C@@](O)(c3cc(Cl)cc4[nH]ncc34)C[C@@H]21)C1CCOCC1
≤ 500 nM

What is its IC50 for TDO2 in A172 cancer cells (Homo sapiens)? Entry: COc1ccccc1-c1c[nH]cc1C(=O)N[C@H]1[C@@H]2C[C@@](O)(c3cc(Cl)cc4[nH]ncc34)C[C@@H]21
≤ 500 nM

What is its IC50 for TDO2 in A172 cancer cells (Homo sapiens)? Entry: O[C@@]1(c2cc(Cl)cc3cn[nH]c23)C[C@H]2CN(c3ccncc3)C[C@H]2C1
> 5000 nM

What is its IC50 for TDO2 in A172 cancer cells (Homo sapiens)? Entry: O=C(CC1CC1)N1C[C@@H]2C[C@@](O)(c3cc(Cl)cc4[nH]ncc34)C[C@@H]2C1
≤ 500 nM

What is its IC50 for TDO2 in A172 cancer cells (Homo sapiens)? Entry: O=C(N[C@H]1[C@@H]2C[C@@](O)(c3cc(Cl)cc4[nH]ncc34)C[C@@H]21)c1ccnc2ccc(F)cc12
≤ 500 nM

What is its IC50 for TDO2 in A172 cancer cells (Homo sapiens)? Entry: O=C(N[C@H]1[C@@H]2C[C@@](O)(c3cc(Cl)cc4[nH]ncc34)C[C@@H]21)c1cccc(F)c1
≤ 500 nM

What is its IC50 for TDO2 in A172 cancer cells (Homo sapiens)? Entry: CCC(=O)N[C@H]1[C@@H]2C[C@@](O)(c3cc(Cl)cc4[nH]ncc34)C[C@@H]21
≤ 500 nM

What is its IC50 for TDO2 in A172 cancer cells (Homo sapiens)? Entry: O=C(N[C@H]1[C@@H]2C[C@@](O)(c3cc(Cl)cc4[nH]ncc34)C[C@@H]21)c1ccncc1
≤ 500 nM

What is its IC50 for TDO2 in A172 cancer cells (Homo sapiens)? Entry: O=C(N[C@H]1[C@@H]2C[C@@](O)(c3cc(Cl)cc4[nH]ncc34)C[C@@H]21)c1cccc(C2CC2)c1
≤ 500 nM

What is its IC50 for TDO2 in A172 cancer cells (Homo sapiens)? Entry: O=C(N[C@H]1[C@@H]2C[C@@](O)(c3cc(Cl)cc4[nH]ncc34)C[C@@H]21)c1cccc(-c2ccccc2)c1
≤ 500 nM

What is its IC50 for TDO2 in A172 cancer cells (Homo sapiens)? Entry: N#Cc1ccc(S(=O)(=O)N2C[C@H]3CN(c4cc(Cl)cc5[nH]ncc45)C[C@H]3C2)cc1
> 5000 nM

What is its IC50 for TDO2 in A172 cancer cells (Homo sapiens)? Entry: O=C(N[C@H]1[C@@H]2C[C@@](O)(c3cc(Cl)cc4[nH]ncc34)C[C@@H]21)c1cncc(F)c1
≤ 500 nM

What is its IC50 for TDO2 in A172 cancer cells (Homo sapiens)? Entry: O=C(C1CCOCC1)N1C[C@@H]2C[C@@](O)(c3cc(Cl)cc4[nH]ncc34)C[C@@H]2C1
≤ 500 nM

What is its IC50 for TDO2 in A172 cancer cells (Homo sapiens)? Entry: CC1(C)[C@H]2CN(c3c(C4CC4)ccc4cncn34)C[C@H]2CN1S(C)(=O)=O (racemic)
> 5000 nM

What is its IC50 for TDO2 in A172 cancer cells (Homo sapiens)? Entry: O=C(N[C@H]1[C@@H]2C[C@@](O)(c3cc(Cl)cc4[nH]ncc34)C[C@@H]21)c1ccnc(OC(F)(F)F)c1
≤ 500 nM

---

Can you tell me IC50 for the items I'm about to list?
study-target: TDO2 in A172 cancer cells (Homo sapiens, UniProt P48775)
Construct: endogenous in cells
Sequence (P48775 whole entry): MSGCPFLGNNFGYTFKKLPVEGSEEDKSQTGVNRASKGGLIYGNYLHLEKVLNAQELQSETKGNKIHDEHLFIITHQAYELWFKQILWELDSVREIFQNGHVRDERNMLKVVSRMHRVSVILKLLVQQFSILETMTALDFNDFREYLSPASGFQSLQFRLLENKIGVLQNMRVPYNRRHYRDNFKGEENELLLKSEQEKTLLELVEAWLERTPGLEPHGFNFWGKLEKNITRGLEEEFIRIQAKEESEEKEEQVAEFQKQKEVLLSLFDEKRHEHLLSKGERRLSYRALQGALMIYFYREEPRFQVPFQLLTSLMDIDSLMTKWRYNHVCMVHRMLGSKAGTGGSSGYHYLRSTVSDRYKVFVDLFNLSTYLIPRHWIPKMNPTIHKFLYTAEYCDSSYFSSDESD
test: TDO2 Cellular Assay (kynurenine production in A172 cancer cells)
condition-summary: L-Trp 1 mM, 24 hours incubation, kynurenine at 490 nm
Where a name gives a salt, the structure may show the parent alone.

Tell me the measured IC50 of N#Cc1cccc(C(=O)N[C@H]2[C@@H]3C[C@@](O)(c4cc(Cl)cc5[nH]ncc45)C[C@@H]32)c1 [Example 144] , please.
≤ 500 nM

Tell me the measured IC50 of N#Cc1ccc(S(=O)(=O)N2C[C@@H]3C[C@@](O)(c4cc(Cl)cc5[nH]ncc45)C[C@@H]3C2)cc1 [Example 39] , please.
≤ 500 nM

Tell me the measured IC50 of O=C(Nc1ccccc1)N[C@H]1[C@@H]2C[C@@](O)(c3cc(Cl)cc4cn[nH]c34)C[C@@H]21 [Example 132] , please.
500 to 1000 nM

Tell me the measured IC50 of O[C@@]1(c2cc(Cl)cc3[nH]ncc23)C[C@H]2C[C@H]2C1 [Example 25] , please.
≤ 500 nM

Tell me the measured IC50 of CCNS(=O)(=O)N[C@H]1[C@@H]2C[C@@](O)(c3cc(Cl)cc4[nH]ncc34)C[C@@H]21 [Example 128] , please.
≤ 500 nM

Tell me the measured IC50 of O=C(Nc1ccc(Cl)cc1)N[C@H]1[C@@H]2C[C@@](O)(c3cc(Cl)cc4[nH]ncc34)C[C@@H]21 [Example 121] , please.
≤ 500 nM

Tell me the measured IC50 of CS(=O)(=O)N1C[C@@H]2C[C@@](O)(c3cc(Cl)cn4cncc34)C[C@@H]2C1 [Example 52] , please.
≤ 500 nM

Tell me the measured IC50 of O=S(=O)(c1ccccc1)N1C[C@@H]2C[C@@](O)(c3cc(Cl)cc4[nH]ncc34)C[C@@H]2C1 [Example 35] , please.
≤ 500 nM

Tell me the measured IC50 of O=C(N[C@H]1[C@@H]2C[C@@](O)(c3cc(Cl)cc4[nH]ncc34)C[C@@H]21)c1ccc(F)c(C(F)(F)F)c1 [Example 172] , please.
≤ 500 nM

Tell me the measured IC50 of O=C(C1CCOCC1)N1C[C@@H]2C[C@@](O)(c3cc(Cl)cc4cn[nH]c34)C[C@@H]2C1 [Example 97] , please.
> 5000 nM

Tell me the measured IC50 of CC1(C)[C@H]2CN(c3cc(Cl)cc4cncn34)C[C@H]2CN1S(C)(=O)=O (racemic) [Example 44] , please.
> 5000 nM

Tell me the measured IC50 of CC1(C)C2CN(c3cc(Cl)cc4[nH]ncc34)CC2CN1S(C)(=O)=O (racemic) [Example 1] , please.
≤ 500 nM

Tell me the measured IC50 of O=C(N[C@@H]1[C@H]2C=C(c3cc(Cl)cc4[nH]ncc34)C[C@H]21)C1CC1 (racemic) [Example 183] , please.
1000 to 5000 nM

Tell me the measured IC50 of O=C(N[C@H]1[C@@H]2C[C@@](O)(c3cc(Cl)cc4cn[nH]c34)C[C@@H]21)c1ccccc1 [Example 129] , please.
1000 to 5000 nM

Tell me the measured IC50 of O=S(=O)(C1CCOCC1)N1C[C@@H]2C[C@@](O)(c3cc(Cl)cc4cn[nH]c34)C[C@@H]2C1 [Example 101] , please.
1000 to 5000 nM

Tell me the measured IC50 of NCC(=O)N[C@H]1[C@@H]2C[C@@](O)(c3cc(Cl)cc4[nH]ncc34)C[C@@H]21 [Example 103, hydrochloride] , please.
1000 to 5000 nM

Tell me the measured IC50 of C#Cc1cccc(C(=O)N[C@H]2[C@@H]3C[C@@](O)(c4cc(Cl)cc5[nH]ncc45)C[C@@H]32)c1 [Example 174] , please.
≤ 500 nM

Tell me the measured IC50 of CC1(C)[C@H]2CN(c3cc(Cl)cc4[nH]ncc34)C[C@H]2CN1C(N)=O (racemic) [Example 31] , please.
≤ 500 nM

Tell me the measured IC50 of CC(=O)N1C[C@@H]2CN(c3cc(Cl)cn4cncc34)C[C@@H]2C1(C)C (racemic) [Example 41] , please.
1000 to 5000 nM

Tell me the measured IC50 of CC(=O)N[C@H]1[C@@H]2C[C@@](O)(c3cc(Cl)cc4cn[nH]c34)C[C@@H]21 [Example 108] , please.
≤ 500 nM

Tell me the measured IC50 of O=C(N[C@H]1[C@@H]2C[C@@](O)(c3cc(Cl)cc4[nH]ncc34)C[C@@H]21)c1ccc(F)c(F)c1 [Example 168] , please.
≤ 500 nM
